B1: TPR t1 (parent)
chain: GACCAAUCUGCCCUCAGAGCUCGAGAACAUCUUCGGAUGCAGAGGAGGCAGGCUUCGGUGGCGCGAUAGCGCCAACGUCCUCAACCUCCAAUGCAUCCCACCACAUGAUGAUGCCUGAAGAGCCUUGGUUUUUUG

variants of: B1; assay: polymerase ribozyme fitness, log enrichment relative to wild type (log ratio); higher = more active; in vitro selection for triplet polymerase activity
Listed variants paired with reported polymerase ribozyme fitness (log ratio)
Just the number, please, no unit after it.

- mutation-descriptor: "G77U C115G G128C"
  assay-metric: "polymerase ribozyme fitness (log ratio)"
  assay-value: -2.98

*Q* Answer with the recorded polymerase ribozyme fitness (log ratio) of C53A G60A A121U only.
*A* 1.33

*Q* Look up and state reported polymerase ribozyme fitness (log ratio) for G47U U96A
*A* -2.1

*Q* Note polymerase ribozyme fitness (log ratio) for the variant shown: C11A G93C C102A
*A* -3.43

*Q* Give recorded polymerase ribozyme fitness (log ratio). C104A U112G
*A* -1.47

*Q* Using the record for A41U G61A , state its measured polymerase ribozyme fitness (log ratio).
*A* -1.07

*Q* Give polymerase ribozyme fitness (log ratio) for C72G C82A
*A* -1.18

*Q* Give reported polymerase ribozyme fitness (log ratio) value for A24C C124A
*A* -5.24

*Q* State, in one line, measured polymerase ribozyme fitness (log ratio) of G77A A83C C94U C115G U116C U125G
*A* -4.83

*Q* Consider the variant C22U G39U G60C C76U U78A C115G G127C and give its recorded polymerase ribozyme fitness (log ratio).
*A* -6.22

*Q* Specify polymerase ribozyme fitness (log ratio) for C3G U7G C88G C114U and stop.
*A* -2.56
